Numbers sourced from patent US9539219B2.

# experiment: Pharmacokinetic study of the chylomicron and micelle compositions in rats (gavage and i.v.)
# Format: in vivo, male Sprague-Dawley rats
# study_conditions: male, Sprague-Dawley, rat, in vivo, po, 14.3 mg/kg, t1/2
recorded_endpoint: half-life (h)
# output: bare number, implied unit h

// query half-life value for entry `CC(C)=CCC/C(C)=C/C=C/C(C)=C/C=C/C(C)=C/C=C/C=C(C)/C=C/C=C(C)/C=C/C=C(\C)CCC=C(C)C`
28.9

---

# experiment: Pharmacokinetic study of the chylomicron and micelle compositions in rats (gavage and i.v.)
# Format: in vivo, male Sprague-Dawley rats
# study_conditions: male, Sprague-Dawley, in vivo; IV 1.43 mg/kg BW, rat; read-out: AUC higher for IV administered micelle composition compared to IV administered chylomicron composition (difference) (converted)
recorded_endpoint: AUC
Please append the unit to your numeric answer.

# get_value(readout='AUC', item= CC(C)=CCC/C(C)=C/C=C/C(C)=C/C=C/C(C)=C/C=C/C=C(C)/C=C/C=C(C)/C=C/C=C(\C)CCC=C(C)C [Solanorubin, solanorubin] )
3380 ng·h/mL
